Assay: NOD1 signaling inhibitors, primary screen, cell-based, luminescence, uHTS (AID 1578);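 note: HEK-293T reporter cells stimulated with the NOD1 agonist gamma-tri-DAP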
Conditions: NOD1-driven NF-kB luciferase reporter cells, at 4 µM
Screen size: about 290,000 compounds; about 3,000 (1%) were called active. Cut-off read from the data, not from the text of the source: active = inhibition mostly above about 36% (no sharp cut-off); inactive = mostly below about 34%. The sample holds actives, similar compounds and a random draw of the others, so the mix is not that of the screen.
Outcomes: active, inactive

COMPOUND | QUALITATIVE LABEL
CCC(C)NC(=O)c1ccc2nc(Cc3ccc(OC)cc3)oc2c1 (centres undefined) | inactive
CC1(C)CCSC(/C=C/c2ccccc2)=N1 | active
COc1ccc(OC)c(-c2cc(C3CCN(c4cc(Cl)nc(N)n4)CC3)[nH]n2)c1 | active
Cc1ccc(CNC(=O)C2CCC(=O)N2Cc2ccc(C)cc2)cc1 (centres undefined) | inactive
C=CCN(CC=C)C(=S)NC(=O)c1ccc(C)c(Br)c1 | active
Nc1nc(Cl)cc(N2CCC(c3cc(-c4ccc(Cl)cc4Cl)n[nH]3)CC2)n1 | inactive
O=C(c1ccc(-c2ccccc2)cc1)N1CCN(c2nc3ccccc3o2)CC1 | active
Nc1nnnn1/N=C/C=C/c1ccccc1 | inactive
C=CCN(CC=C)C(=S)NC(=O)c1ccc(OC)c(Br)c1 | inactive
ClC(/C=N/n1cnnc1)=C/c1ccccc1 | inactive
BrC(=C\c1ccccc1)/C=N/n1cnnc1 | active
CCOC(=O)C1(CCc2ccccc2)CCN(Cc2ccc(C(=O)OC)cc2)CC1 | inactive
CCOc1ccc(-c2nc(CSCC(=O)N3CCN(C(=O)c4ccco4)CC3)c(C)o2)cc1 | inactive
Cc1ccc(C(=O)Nc2ccc(-c3csc(C)n3)cc2)cc1 | inactive
Cc1nc(-c2ccc(C(=O)Nc3cccc(Br)c3)cc2)cs1 | active
Cc1nc(-c2ccc(C(=O)Nc3cccc(F)c3)cc2)cs1 | inactive
COc1ccc(NC(=O)CCn2cc(C)c3ccccc32)cc1 | inactive
Cc1cc(N=CC2=C(O)CC(C)(C)CC2=O)no1 | inactive
CCOC(=O)[C@@H]1[C@H]2COc3ccc(Br)cc3[C@H]2N2C(=O)N(c3ccc(C)cc3)C(=O)[C@]12C | inactive
Nc1nnnn1/N=C/c1ccccc1 | inactive
CCOC(=O)C1CCN(C(=O)CSCc2nc(-c3ccc(OCC)cc3)oc2C)CC1 | inactive
CC(=O)Nc1ccc(C(=O)OCC(=O)Nc2c(F)cccc2F)cc1 | inactive
Nc1nnc(/C=C/c2ccccc2)s1 | inactive
Cc1nc(-c2cccc(NC(=O)c3ccco3)c2)cs1 | inactive

Source listed as PubChem BioAssay AID1578.
